// provenance: patent US8168642B2

System: HepG 2.2.15 cells
procedure-text: Cytotoxicity in HepG 2.2.15 cells (cell morphology under microscope after 8 days, Reed&Muench)
Format: cell-based
condition: pathological change of cells after 8 days
Procedure: The antiviral test was carried out in a 96-cell microtiter plate. The first column of the plate only contained a culture medium and HepG 2.2.15 cells, as a blank control. […] The substance-induced change in cytotoxicity in HepG 2.2.15 cells or in inhibition of the cells could be determined by using, e.g., optical microscopic technique, and expressed by the change of cell morphology. […]
Entries and their TD50 values follow.
readout-name: TD50

1) COC(=O)C1=C(C)NC(c2csc(C)n2)=NC1c1ccc(F)cc1Cl (centres unmarked) [Example 29] = 56.34 µM
2) CCOC(=O)C1=C(C)NC(c2sc(C)nc2C)=NC1c1ccc(F)cc1Cl (centres unmarked) [Example 40] = 157.42 µM
3) COC(=O)C1=C(C)NC(c2csc(Cl)n2)=NC1c1ccc(F)cc1Cl (centres unmarked) [Example 34] = 12.35 µM
4) CCOC(=O)C1=C(C)NC(c2scnc2C)=NC1c1ccc(F)cc1Cl (centres unmarked) [Example 38] = 54.33 µM
5) CCOC(=O)C1=C(C)NC(c2nccn2C)=NC1c1ccc(F)cc1Cl (centres unmarked) [Example 49] = 38.83 µM
